Test system: CCRIS mutagenicity, Ames/micronucleus/aberration tests
Experiment: CCRIS mutagenicity studies
Settings: Test System: AMES SALMONELLA TYPHIMURIUM; Strain/Indicator: TA100; Metabolic Activation: RAT, LIVER, S-9, AROCLOR 1254 (10%); Method: PREINCUBATION
Calls of active or inactive are those of the source. How the calls were made is not given here.
Outcomes: t (active), f (inactive)

molecule=C=C(C)C(=O)OCC(C)C group=f
molecule=CCCCCCCCOc1ccc(C(=O)O)cc1 group=f
molecule=Oc1c(Cl)ccc(Cl)c1Cl group=f
molecule=Cc1ccccc1N group=f
molecule=CCCN(CCC)S(=O)(=O)c1ccc(C(=O)O)cc1 group=f
molecule="CC(CN1c2ccccc2Sc2ccccc21)N(C)C (centres undefined)" group=f
molecule=CCCCOC(=O)c1ccccc1C(=O)OCc1ccccc1 group=f
molecule=Nc1ccccc1-c1ccccc1 group=t
molecule=CC(=O)O group=f
molecule="C=C(C)C(=O)OCC(Br)CBr (centres undefined)" group=t
molecule=ClC1=C(Cl)[C@]2(Cl)[C@@H]3[C@H]4C[C@H]([C@@H]5O[C@H]45)[C@@H]3[C@@]1(Cl)C2(Cl)Cl group=f
molecule=CCN(CC)C(=S)SSC(=S)N(CC)CC group=f
molecule=c1ccc2n[nH]nc2c1 group=f
molecule=CCCCCCCCCCCCOS(=O)(=O)O group=f

---

Tested on: CCRIS mutagenicity, Ames/micronucleus/aberration tests
Experiment: CCRIS mutagenicity studies
Details: Test System: AMES SALMONELLA TYPHIMURIUM; Strain/Indicator: TA98; Metabolic Activation: NONE; Method: STANDARD PLATE
Activity calls are given as the source filed them. The rule behind the calls is not given here.
Assay endpoint: mutagenic call

molecule=OCc1cc2cccc3ccc4cc5ccccc5c1c4c32 assay_endpoint="mutagenic call" assay_result="inactive; negative"
molecule=COC(=O)C1=CCCN(C)C1 assay_endpoint="mutagenic call" assay_result="inactive; negative"
molecule=O=C(O)c1nn(Cc2ccc(Cl)cc2Cl)c2ccccc12 assay_endpoint="mutagenic call" assay_result="inactive; negative"
molecule=O=C(Cl)OCc1ccccc1 assay_endpoint="mutagenic call" assay_result="inactive; negative"
molecule=COc1ccc(-c2nc(-c3ccccc3)c(-c3ccccc3)[nH]2)cc1 assay_endpoint="mutagenic call" assay_result="active; positive"
molecule=Nc1ccc(-c2ccc(Cl)cc2)cc1 assay_endpoint="mutagenic call" assay_result="inactive; negative"
molecule="O=C(c1ccc(-c2ccccc2)cc1)C1OC1c1ccccc1 (configuration not stated)" assay_endpoint="mutagenic call" assay_result="inactive; negative"
molecule=C=C1CC[C@H]2C[C@@H]1C2(C)C assay_endpoint="mutagenic call" assay_result="inactive; negative"
molecule=COC/C(=C/c1ccccc1)OC assay_endpoint="mutagenic call" assay_result="inactive; negative"
molecule=c1ccc2c(c1)cc1sc3cccc4ccc2c1c43 assay_endpoint="mutagenic call" assay_result="inactive; negative"
molecule=CNCCCC(=O)O assay_endpoint="mutagenic call" assay_result="inactive; negative"
molecule=O=C(O)CCC(=O)Nc1cc(Cl)cc(Cl)c1 assay_endpoint="mutagenic call" assay_result="inactive; negative"
molecule=O=C(/C=C/c1ccc(O)c(O)c1)O[C@@H]1C[C@](O)(C(=O)O)C[C@@H](O)[C@H]1O assay_endpoint="mutagenic call" assay_result="inactive; negative"
molecule=c1ccc(-c2nc3ccccc3o2)cc1 assay_endpoint="mutagenic call" assay_result="inactive; negative"
molecule="CCOCC(O)COc1ccc(NC(=O)CC[S+](C)C)cc1 (configuration not stated)" assay_endpoint="mutagenic call" assay_result="inactive; negative"
molecule=N[C@@H](Cc1ccccc1)C(=O)O assay_endpoint="mutagenic call" assay_result="inactive; negative"
molecule="Nc1ccn([C@@H]2O[C@H](CO)[C@@H](O)C2O)c(=O)n1 (some centres not stated)" assay_endpoint="mutagenic call" assay_result="inactive; negative"
molecule=C=C[Si](C)(C)N[Si](C)(C)C=C assay_endpoint="mutagenic call" assay_result="inactive; negative"
molecule=Oc1ccc(O)c2c(O)c3ccccc3c(O)c12 assay_endpoint="mutagenic call" assay_result="inactive; negative"
molecule="OOC1CCCc2ccccc21 (configuration not stated)" assay_endpoint="mutagenic call" assay_result="inactive; negative"
molecule="CCOC(=O)CC(SP(=O)(OC)OC)C(=O)OCC (configuration not stated)" assay_endpoint="mutagenic call" assay_result="inactive; negative"
molecule=Cc1c(C)c2c(c(C)c1O)CC[C@@](C)(CCC[C@H](C)CCC[C@H](C)CCCC(C)C)O2 assay_endpoint="mutagenic call" assay_result="inactive; negative"
molecule=O=C1C(=O)c2c(ccc3ccccc23)-c2ccccc21 assay_endpoint="mutagenic call" assay_result="inactive; negative"
molecule=CCc1ccc2c(c1[N+](=O)[O-])C(=O)c1ccccc1C2=O assay_endpoint="mutagenic call" assay_result="inactive; negative"
molecule=[N-]=[N+]=[N-] assay_endpoint="mutagenic call" assay_result="inactive; negative"
molecule=Cc1ccccc1N assay_endpoint="mutagenic call" assay_result="inactive; negative"
molecule=COC(=O)c1cc(OC)c2c(c1-c1c(C(=O)OC)cc(OC)c3c1OCO3)OCO2 assay_endpoint="mutagenic call" assay_result="inactive; negative"
molecule=Cc1ccc2c(ccc3ccccc32)c1 assay_endpoint="mutagenic call" assay_result="inactive; negative"
molecule=CC(C)(C)c1cc(-c2ccccc2)ccc1N=O assay_endpoint="mutagenic call" assay_result="active; positive"
molecule=Cn1c(NO)nc2ncc(-c3ccccc3)cc21 assay_endpoint="mutagenic call" assay_result="active; positive"
molecule="O=C(O)C1Cc2c([nH]c3ccccc23)C(CO)N1 (configuration not stated)" assay_endpoint="mutagenic call" assay_result="inactive; negative"
molecule=Cn1cc(C[C@@]2(O)C(=O)O[C@@H]3[C@@H](O)CO[C@@]32O)c2ccccc21 assay_endpoint="mutagenic call" assay_result="active; positive"
molecule=Nc1ccc2c(c1)C(=O)c1ccc(N)cc1C2=O assay_endpoint="mutagenic call" assay_result="inactive; negative"
molecule=O=C(CCNNC(=O)c1ccncc1)NCc1ccccc1 assay_endpoint="mutagenic call" assay_result="inactive; negative"
molecule="O=C1Nc2ccc(Cl)cc2C(c2ccccc2)=NC1O (configuration not stated)" assay_endpoint="mutagenic call" assay_result="inactive; negative"
molecule="CC1C(C)(C)C2=C(C(=O)CCC2)C1(C)C (configuration not stated)" assay_endpoint="mutagenic call" assay_result="inactive; negative"
molecule=[N-]=[N+]=NC[C@H]1O[C@H](O)[C@H](O)[C@H](O)[C@@H]1O assay_endpoint="mutagenic call" assay_result="inactive; negative"
molecule=O=C1OCC(C(Cl)Cl)=C1Cl assay_endpoint="mutagenic call" assay_result="inactive; negative"
molecule=O=c1cc(-c2ccccc2)cc(-c2ccccc2)n1/N=C/c1ccc([N+](=O)[O-])o1 assay_endpoint="mutagenic call" assay_result="inactive; negative"
molecule=C[n+]1ccn(COCCC(C)(C)[N+](=O)[O-])c1/C=N/O assay_endpoint="mutagenic call" assay_result="inactive; negative"
molecule=Oc1cccc(Cl)c1 assay_endpoint="mutagenic call" assay_result="active; positive"
molecule=CC(C)Oc1ccc2c(=O)c(-c3ccccc3)coc2c1 assay_endpoint="mutagenic call" assay_result="inactive; negative"
molecule=NC(=O)c1cc[n+](COC[n+]2ccccc2/C=N/O)cc1 assay_endpoint="mutagenic call" assay_result="inactive; negative"
molecule="COc1ccc(CNCC(O)COc2ccc3[nH]c(=O)ccc3c2)cc1OC (configuration not stated)" assay_endpoint="mutagenic call" assay_result="inactive; negative"
molecule=CCN(CC[N+](C)(C)C)c1ccc(N=Nc2ccc([N+](=O)[O-])cc2Cl)cc1 assay_endpoint="mutagenic call" assay_result="active; positive"
molecule=Cc1cc(C)c2c(ccc3ccccc32)c1 assay_endpoint="mutagenic call" assay_result="inactive; negative"
molecule=CCO[Si](OCC)(OCC)OCC assay_endpoint="mutagenic call" assay_result="inactive; negative"
molecule=O=[N+]([O-])c1c(O)ccc2c1[nH]c1ccccc12 assay_endpoint="mutagenic call" assay_result="inactive; negative"
molecule=O=[N+]([O-])c1cc2c([nH]c3ccccc32)c([N+](=O)[O-])c1O assay_endpoint="mutagenic call" assay_result="active; positive"
molecule=CC(=O)OCc1c2cccc3ccc4cc5cccc6ccc1c(c65)c4c32 assay_endpoint="mutagenic call" assay_result="active; positive"
molecule=CC[C@@H](CO)NCCN[C@@H](CC)CO assay_endpoint="mutagenic call" assay_result="inactive; negative"
molecule=Cc1nc2ccccc2s1 assay_endpoint="mutagenic call" assay_result="inactive; negative"

---

System: CCRIS mutagenicity, Ames/micronucleus/aberration tests
Assay: CCRIS mutagenicity studies
Details: Test System: AMES SALMONELLA TYPHIMURIUM; Strain/Indicator: TA100; Metabolic Activation: NONE; Method: PREINCUBATION
The source made the active and inactive calls. How the calls were made is not given here.
Outcomes: active, inactive

compound=CCCN(CCC)S(=O)(=O)c1ccc(C(=O)O)cc1 group=inactive
compound=O[C@H]1[C@@H]2O[C@@H]2c2c(ccc3cc4ccc5ccccc5c4nc23)[C@@H]1O group=active
compound=CN(C)CCN(Cc1ccsc1)c1ccccn1 group=inactive
compound=CCc1cccc(CC)c1NC(=O)CCl group=active
compound=COc1cc(-c2cc(OC)cc(C(C)(C)C)c2O)c(O)c(C(C)(C)C)c1 group=inactive
compound=Oc1ccc(Cl)c(Cl)c1 group=inactive
compound=COc1cccc(N)c1 group=inactive
compound=O[C@@H]1[C@H]2O[C@H]2c2c(ccc3cc4c(ccc5ccccc54)nc23)[C@H]1O group=active
compound=CO/N=C(\C(=O)N[C@@H]1C(=O)N2C(C(=O)OCOC(=O)C(C)(C)C)=C(/C=C\c3scnc3C)CS[C@H]12)c1csc(N)n1 group=inactive
compound=Oc1ccc2ccc3c4ccc5ccccc5c4c4c(c3c2c1O)O4 group=active
compound=O=S(=O)(O)c1ccc2cc(O)c(S(=O)(=O)O)cc2c1 group=inactive
compound="CCN(CC)CCCC(C)Nc1ccnc2cc(Cl)ccc12 (configuration not stated)" group=inactive
compound=CCCN(N=O)/C(N)=N/[N+](=O)[O-] group=active
compound=Nc1nc2c([nH]c(=O)n2[C@@H]2O[C@H](CO)[C@@H](O)[C@H]2O)c(=O)[nH]1 group=inactive
compound=O=[N+]([O-])c1ccc2c(c1)Oc1ccc([N+](=O)[O-])cc1O2 group=inactive
compound=Nc1cc2c3c(ccc2c2ccccc12)[C@H](O)[C@@H](O)C=C3 group=active
compound=C=C(C)C=O group=active
compound=Cl[C@@H]1O[C@@H]1CBr group=active
compound=CC(=O)NNc1ccccc1 group=inactive
compound=C=CCN(CC=C)CC=C group=inactive
compound=COC(=O)[C@@]12Oc3ccc(-c4ccc5c(c4O)C(O)=C4C(=O)C[C@H](C)[C@@H](O)[C@]4(C(=O)OC)O5)c(O)c3C(O)=C1C(=O)C[C@H](C)[C@H]2O group=inactive
compound=NNc1nncc2cccnc12 group=active
compound=O=[N+]([O-])c1ccc(Nc2ccccc2O)c([N+](=O)[O-])c1 group=inactive
compound="CCC1CO1 (configuration not stated)" group=active
compound=Nc1ccc(-c2ccccc2)cc1 group=inactive
compound=CCN(CC)S(=O)(=O)c1ccc(N)cc1 group=inactive
compound=O=C(O)C(Cl)Cl group=active
compound="CC1CC(C)C(=O)C1=O (configuration not stated)" group=inactive
compound=C=CC(=O)OCC group=inactive
compound=Nc1ccc(Oc2cccc(Oc3ccc(N)cc3)c2)cc1 group=inactive
compound=OCC(O)CO group=inactive
compound=O=C/C=C/C=C/C=O group=inactive
compound=C=CC(=C)C group=inactive
compound=CC(=O)[C@@]1(C)O[C@]12C(=O)C=Cc1ccccc12 group=inactive
compound="NC1CCCC(N)C1 (configuration not stated)" group=inactive
compound=OCCO group=inactive
compound=O=C(O)C(Cl)=C(C(Cl)Cl)C(Cl)Cl group=active
compound=CNC(=O)NC group=inactive
compound=CCCCN(C[C@@H](CO)OCc1ccccc1)N=O group=active
compound=N#Cc1ccc([N+](=O)[O-])cc1 group=inactive
compound=Nc1c(O)cccc1C(=O)O group=inactive
compound=CCN(CC)C(=O)/C(Cl)=C(\C)OP(=O)(OC)OC group=active
compound=COc1nncc2cnccc12 group=inactive
compound=CCCCCCCCCCCCOS(=O)(=O)O group=inactive
compound=C1N2CN3CN1CN(C2)C3 group=inactive
compound=CCC(C)(C)c1ccc(O)cc1 group=inactive
compound=CC(C)CO group=inactive
compound=Cl group=inactive
compound=Nc1c(C(=O)N/N=C/c2ccccc2)[nH]c2ccccc12 group=inactive
compound=CN(CCCC(=O)c1cccnc1)N=O group=inactive
compound=O=[N+]([O-])c1cc([N+](=O)[O-])c2ccccc2c1 group=active
compound=NNc1ccc([N+](=O)[O-])cc1 group=active
compound=c1ccc2c(c1)ccc1cc3c(ccc4ccccc43)cc12 group=inactive
compound="NC(CNCCCC[C@H](N)C(=O)O)C(=O)O (some centres not stated)" group=inactive
compound=Cc1cnc2ccccc2n1 group=inactive
compound=C[N+](C)(C)Cc1ccccc1 group=inactive
compound="C(CCOCC1CO1)COCC1CO1 (configuration not stated)" group=active

Sourced from PubChem BioAssay AID1259407
